# test-method-notes: basal S. cerevisiae growth modulation, no modifier, primary screen, OD600, strain BY4716, 24 h, basal condition (AID 1173)
# assay-context: OD600, 24 h, called active from +8 up or from −8 down
Activity calls are given as the source filed them.
Outcome codes: active, inactive

>>> df
                                   compound  class_assignment
0  COc1ccc(COC(=O)NN=C2C[C@@H](O)[C@@H](O)[C@@H]3[C@@H]4C(=O)N(C(C)(C)C)C(=O)[C@@H]4CC[C@@H]23)cc1          inactive
1  COc1ccc(COC(=O)NN=C2C[C@@H](O)[C@@H](O)[C@@H]3[C@@H]4C(=O)N(Cc5ccccc5)C(=O)[C@@H]4CC[C@@H]23)cc1          inactive
2  COC(=O)[C@@H]1CC[C@H](C)[C@@H](c2ccc(Br)cc2)N1C[C@@H](O)CN=[N+]=[N-]            active
3  CC(C)=NOC(C)CN1CCCc2nc(C)c(C)cc21 (centres undefined)          inactive
